Values were extracted from ChEMBL document CHEMBL1127457.

TEST_METHOD_NOTES: Partition coefficient (logD6.5)
ASSAY_SETUP: octanol/water, pH 6.5
PARAMETER: logD

Consider the molecule shown here: CCCC[C@H](O[C@@H](Cc1ccccc1)C(=O)N1CCC(OCOC)CC1)C(=O)N[C@@H](CC1CCCCC1)[C@@H](O)C[C@H](C(=O)NCCNC(N)=NC#N)C(C)C What is its recorded logD?
> 5

One more molecule: CCCC[C@H](N[C@@H](Cc1ccccc1)C(=O)N1CCC(OCOC)CC1)C(=O)N[C@@H](CC1CCCCC1)[C@@H](O)C[C@H](C(=O)NCCN1CCOCC1)C(C)C
> 5

One more molecule: CCCC[C@H](N[C@@H](Cc1ccccc1)C(=O)N1CCC(OCOC)CC1)C(=O)N[C@@H](CC1CCCCC1)[C@@H](O)C[C@H](C(=O)NCc1ccncc1)C(C)C
> 5

One more molecule: CCCC[C@H](N[C@@H](Cc1ccccc1)C(=O)N1CCC(OCOC)CC1)C(=O)N[C@@H](CC1CCCCC1)[C@@H](O)C[C@H](C(=O)NCc1ccccc1)C(C)C
> 5

One more molecule: CCCC[C@H](N[C@@H](Cc1ccccc1)C(=O)N1CCC(OCOC)CC1)C(=O)N[C@@H](CC1CCCCC1)[C@@H](O)C[C@H](C(=O)NCCNc1n[nH]c(N)n1)C(C)C
4.1

One more molecule: CCCC[C@H](N[C@@H](Cc1ccccc1)C(=O)N1CCC(OCOC)CC1)C(=O)N[C@@H](CC1CCCCC1)[C@@H](O)C[C@H](C(=O)NCc1cccnc1)C(C)C
> 5

One more molecule: CCCC[C@H](N[C@@H](Cc1ccccc1)C(=O)N1CCC(OCOC)CC1)C(=O)N[C@@H](CC1CCCCC1)[C@@H](O)C[C@H](C(=O)NCCCNCCO)C(C)C
2.9

One more molecule: CCCC[C@H](O[C@@H](Cc1ccccc1)C(=O)N1CCC(OCOC)CC1)C(=O)N[C@@H](CC1CCCCC1)[C@@H](O)C[C@H](C(=O)NCC(C)(C)N)C(C)C
2.7

One more molecule: CCCC[C@H](N[C@@H](Cc1ccccc1)C(=O)N1CCC(OCOC)CC1)C(=O)N[C@@H](CC1CCCCC1)[C@@H](O)C[C@H](C(=O)NCCC1CCCCC1)C(C)C
> 5

One more molecule: CCCC[C@H](N[C@@H](Cc1ccccc1)C(=O)N1CCC(OCOC)CC1)C(=O)N[C@@H](CC1CCCCC1)[C@@H](O)C[C@H](C(=O)NCC(C)(C)N1CCOCC1)C(C)C
> 5

One more molecule: CCCC[C@H](N[C@@H](Cc1ccccc1)C(=O)N1CCC(OCOC)CC1)C(=O)N[C@@H](CC1CCCCC1)[C@@H](O)C[C@H](C(=O)NCc1ccccn1)C(C)C
> 5

One more molecule: CCCC[C@H](O[C@@H](Cc1ccccc1)C(=O)N1CCC(OCOC)CC1)C(=O)N[C@@H](CC1CCCCC1)[C@@H](O)C[C@H](C(=O)NCCNc1noc(N)n1)C(C)C
4.5

---

TEST_METHOD_NOTES: Average peak plasma concentration of compound after 1 mg/kg intravenous administration to Ferret
ASSAY_SETUP: plasma
Below, each entry is listed alongside its reported log10(Cmax).
Note the log scale: values are log10 of Cmax expressed in ng/mL.

Past entries and their recorded results:
CCCC[C@H](N[C@@H](Cc1ccccc1)C(=O)N1CCC(OCOC)CC1)C(=O)N[C@@H](CC1CCCCC1)[C@@H](O)C[C@H](C(=O)NCC(C)(C)N1CCOCC1)C(C)C    3.47
CCCC[C@H](N[C@@H](Cc1ccccc1)C(=O)N1CCC(OCOC)CC1)C(=O)N[C@@H](CC1CCCCC1)[C@@H](O)C[C@H](C(=O)NCCN1CCCC1)C(C)C    3.59
CCCC[C@H](N[C@@H](Cc1ccccc1)C(=O)N1CCC(OCOC)CC1)C(=O)N[C@@H](CC1CCCCC1)[C@@H](O)C[C@H](C(=O)NCCN1CCOCC1)C(C)C    3.45
CCCC[C@H](N[C@@H](Cc1ccccc1)C(=O)N1CCC(OCOC)CC1)C(=O)N[C@@H](CC1CCCCC1)[C@@H](O)C[C@H](C(=O)NCc1ccccn1)C(C)C    4.00
CCCC[C@H](N[C@@H](Cc1ccccc1)C(=O)N1CCC(OCOC)CC1)C(=O)N[C@@H](CC1CCCCC1)[C@@H](O)C[C@H](C(=O)NCCNc1noc(N)n1)C(C)C    2.51
CCCC[C@H](N[C@@H](Cc1ccccc1)C(=O)N1CCC(OCOC)CC1)C(=O)N[C@@H](CC1CCCCC1)[C@@H](O)C[C@H](C(=O)NCCC[N+]1([O-])CCOCC1)C(C)C    3.26

Please examine the following record next.
Consider the compound shown here: CCCC[C@H](N[C@@H](Cc1ccccc1)C(=O)N1CCC(OCOC)CC1)C(=O)N[C@@H](CC1CCCCC1)[C@@H](O)C[C@H](C(=O)NCCN1CCCCC1)C(C)C What is its recorded log10(Cmax)?
3.56
